assay: Pharmacokinetic (PK) experiment, oral administration in rats; format: in vivo, Male SD rats; conditions: male, SD, rat, plasma, 20 mg/kg
Property Name: Cmax (ng/mL)

Illustrative cases are given below, each with its answer.
Exam item: I'd like to know its Cmax. The compound in question is O=C(C1CCCC1)N1CCC(c2ccc(-c3cn[nH]c3)cc2)CC1 [Compound 70]
Marked response: 7320

Exam item: I'd like to know its Cmax. The compound in question is O=C(N1CCCC1)N1CCC(c2ccc(-c3cn[nH]c3)c(F)c2F)CC1 [Compound 71]
Marked response: 8730

Exam item: I'd like to know its Cmax. The compound in question is O=C(N1CCCC1)N1CCN(c2ccc(-c3cn[nH]c3)c(F)c2F)CC1 [Compound 72]
Marked response: 7880

Exam item: I'd like to know its Cmax. The compound in question is O=S1(=O)CCCCN1CC1CCN(c2ccc(-c3cn[nH]c3)cc2F)CC1 [Compound 163]
Marked response: 6680

Exam item: I'd like to know its Cmax. The compound in question is O=C(C1CCN(c2ccc(-c3cn[nH]c3)cc2F)CC1)N1CC2CCCC2C1 (stereo not drawn) [Compound 153]
Marked response: 75200

P: O=C1CCCN1CC1CCN(c2ccc(-c3cn[nH]c3)c(F)c2F)CC1 [Compound 4]
Q: O=C(C1CCN(c2ccc(-c3cn[nH]c3)cc2)CC1)N1Cc2ccccc2C1 [Compound 66]
R: O=C(CCCCCc1ccccc1)NCC1CCN(c2ccc(-c3cn[nH]c3)cc2)CC1 [Compound 113]
S: O=C1CCCN1Cc1ccc(C2CCN(c3cn[nH]c3)CC2)cc1 [Reference 83, reference compound]
T: O=C(N1CC=C(c2ccc(-c3cn[nH]c3)c(F)c2F)CC1)N1CCCC1 [Compound 91]
Exam item: Rank descending by Cmax. List each label, following the requested order.
Marked response: Q, T, P, R, S
